Biological target: G2019S LRRK2 (Homo sapiens, UniProt Q5S007, G2019S)
Construct: expressed in transfected cells; host or cells: HEK293 (ATCC CRL-1573)
Sequence (Q5S007 whole entry G2019S): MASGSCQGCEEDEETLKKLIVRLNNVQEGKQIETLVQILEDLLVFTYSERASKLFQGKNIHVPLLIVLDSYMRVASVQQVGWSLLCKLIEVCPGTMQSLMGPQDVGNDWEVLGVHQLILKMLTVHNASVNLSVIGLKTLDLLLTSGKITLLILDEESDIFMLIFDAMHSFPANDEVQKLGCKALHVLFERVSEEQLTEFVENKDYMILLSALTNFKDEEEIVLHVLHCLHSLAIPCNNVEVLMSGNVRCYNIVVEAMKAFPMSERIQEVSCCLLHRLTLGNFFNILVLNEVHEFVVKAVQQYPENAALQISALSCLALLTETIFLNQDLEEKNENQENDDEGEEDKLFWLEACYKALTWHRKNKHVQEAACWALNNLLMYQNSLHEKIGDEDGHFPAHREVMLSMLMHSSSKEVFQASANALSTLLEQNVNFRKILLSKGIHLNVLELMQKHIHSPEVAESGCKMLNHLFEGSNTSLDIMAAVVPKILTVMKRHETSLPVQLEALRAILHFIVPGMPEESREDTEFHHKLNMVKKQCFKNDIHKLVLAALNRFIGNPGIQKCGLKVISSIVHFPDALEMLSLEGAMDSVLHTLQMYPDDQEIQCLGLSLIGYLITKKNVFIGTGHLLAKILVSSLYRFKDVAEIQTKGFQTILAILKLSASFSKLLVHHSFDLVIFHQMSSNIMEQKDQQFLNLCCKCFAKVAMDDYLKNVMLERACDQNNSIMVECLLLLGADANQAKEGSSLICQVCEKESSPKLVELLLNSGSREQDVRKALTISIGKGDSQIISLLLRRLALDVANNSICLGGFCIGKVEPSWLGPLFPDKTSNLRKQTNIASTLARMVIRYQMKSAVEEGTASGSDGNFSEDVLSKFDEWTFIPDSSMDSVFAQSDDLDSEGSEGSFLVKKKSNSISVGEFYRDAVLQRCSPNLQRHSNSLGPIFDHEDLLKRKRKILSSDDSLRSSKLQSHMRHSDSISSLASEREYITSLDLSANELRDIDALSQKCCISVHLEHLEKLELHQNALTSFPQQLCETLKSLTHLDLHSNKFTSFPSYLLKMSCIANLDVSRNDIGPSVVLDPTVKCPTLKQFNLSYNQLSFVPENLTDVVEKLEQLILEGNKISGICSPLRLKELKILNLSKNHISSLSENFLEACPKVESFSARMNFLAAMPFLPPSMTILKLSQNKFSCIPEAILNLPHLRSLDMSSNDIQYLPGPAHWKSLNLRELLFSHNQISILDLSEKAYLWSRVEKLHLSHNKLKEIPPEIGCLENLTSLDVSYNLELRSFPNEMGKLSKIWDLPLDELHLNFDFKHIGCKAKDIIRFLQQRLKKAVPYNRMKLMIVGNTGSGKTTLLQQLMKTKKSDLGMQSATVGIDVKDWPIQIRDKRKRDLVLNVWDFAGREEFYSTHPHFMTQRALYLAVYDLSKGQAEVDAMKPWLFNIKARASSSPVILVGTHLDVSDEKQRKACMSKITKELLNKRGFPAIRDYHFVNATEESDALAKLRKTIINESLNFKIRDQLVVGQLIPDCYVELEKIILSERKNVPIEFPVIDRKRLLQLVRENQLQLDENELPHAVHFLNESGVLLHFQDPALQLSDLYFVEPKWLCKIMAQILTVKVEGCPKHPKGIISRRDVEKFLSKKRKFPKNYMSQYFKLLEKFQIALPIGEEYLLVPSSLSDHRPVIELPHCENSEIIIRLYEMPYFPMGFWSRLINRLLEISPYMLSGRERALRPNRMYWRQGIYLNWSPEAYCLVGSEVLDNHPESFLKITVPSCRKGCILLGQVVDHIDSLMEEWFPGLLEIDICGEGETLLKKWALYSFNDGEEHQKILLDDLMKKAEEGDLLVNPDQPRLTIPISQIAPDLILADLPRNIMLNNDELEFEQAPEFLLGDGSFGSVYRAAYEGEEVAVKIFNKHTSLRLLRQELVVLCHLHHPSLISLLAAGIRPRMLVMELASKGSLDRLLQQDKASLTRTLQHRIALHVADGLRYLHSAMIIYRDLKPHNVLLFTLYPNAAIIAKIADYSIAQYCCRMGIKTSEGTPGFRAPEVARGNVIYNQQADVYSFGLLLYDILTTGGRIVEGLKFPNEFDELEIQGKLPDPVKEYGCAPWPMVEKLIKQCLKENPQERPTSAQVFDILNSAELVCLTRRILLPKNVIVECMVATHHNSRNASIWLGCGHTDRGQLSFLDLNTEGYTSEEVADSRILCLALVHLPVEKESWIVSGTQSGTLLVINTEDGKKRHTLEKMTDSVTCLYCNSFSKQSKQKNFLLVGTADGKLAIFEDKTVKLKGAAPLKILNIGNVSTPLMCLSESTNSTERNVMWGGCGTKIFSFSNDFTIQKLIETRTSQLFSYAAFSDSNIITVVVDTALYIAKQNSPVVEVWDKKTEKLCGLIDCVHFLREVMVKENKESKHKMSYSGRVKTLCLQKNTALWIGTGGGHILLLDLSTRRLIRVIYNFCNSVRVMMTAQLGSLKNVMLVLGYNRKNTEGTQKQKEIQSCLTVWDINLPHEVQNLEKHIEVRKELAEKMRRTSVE
Assay: LRRK2 degradation HiBit assay, G2019S LRRK2 tagged with a HiBit tag expressed in HEK293 cells
Type: cell-based
Details: HEK293 cells, 24 hours compound incubation
Quick list: DC50 per entry.

CC1=C(C(=O)Nc2ccc3[nH]nc(-c4ccnc(N5CCN(CC6CCN(CC7CCN(c8ccc9c(c8)C(=O)N(C8CCC(=O)NC8=O)C9=O)CC7)CC6)CC5)c4)c3c2)C(C)(C)n2nnnc2N1C (stereo not shown) [compound 29]	10 to 50 nM
CC1=C(C(=O)Nc2ccc3[nH]nc(-c4ccnc(N5CCN(CC6CCN(CC7CCN(c8ccc9c(c8)C(=O)N(C8CCC(=O)NC8=O)C9=O)CC7)CC6)[C@@H](C)C5)c4)c3c2)[C@@H](C)n2nnnc2N1C (single isomer, unassigned) [compound 8]	< 10 nM
CC1=C(C(=O)Nc2ccc3[nH]nc(-c4ccnc(N5CCN(CCN6CCN(CC7CCN(c8ccc9c(c8)C(=O)N(C8CCC(=O)NC8=O)C9=O)CC7)CC6)CC5)c4)c3c2)C(C)(C)n2nnnc2N1C (stereo not shown) [compound 35]	10 to 50 nM

Reported DC50 (G2019S LRRK2 (Homo sapiens, UniProt Q5S007, G2019S)) for entry CC1=C(C(=O)Nc2ccc3[nH]nc(-c4ccnc(N5CCN(CCOCCN6CC7(C6)CN(c6ccc8c(c6)C(=O)N(C6CCC(=O)NC6=O)C8=O)C7)CC5)c4)c3c2)[C@@H](C)n2nnnc2N1C (stereo partly shown) [compound 20] is ≥ 100 nM

---

Molecular target: G2019S LRRK2 (Homo sapiens, UniProt Q5S007, G2019S)
Construct: expressed in transfected cells; host or cells: HEK293 (ATCC CRL-1573)
Experiment: LRRK2 degradation HiBit assay, G2019S LRRK2 tagged with a HiBit tag expressed in HEK293 cells
Type: cell-based
Settings: HEK293 cells, 24 hours compound incubation
Readout kind: DC50

CC1=C(C(=O)Nc2ccc3[nH]nc(-c4ccnc(N5CCN(CCC6CCN(CC7CCN(c8ccc9c(c8)C(=O)N(C8CCC(=O)NC8=O)C9=O)CC7)CC6)CC5)c4)c3c2)[C@@H](C)n2nnnc2N1C (some centres unmarked) [compound 14]	0.05 to 0.1 µM
CC1=C(C(=O)Nc2ccc3[nH]nc(-c4ccnc(N5CCN(CCN6CCN(CC7CCN(c8ccc9c(c8)C(=O)N(C8CCC(=O)NC8=O)C9=O)CC7)CC6)[C@@H](C)C5)c4)c3c2)[C@H](C)n2nnnc2N1C (some centres unmarked) [compound 28]	≥ 0.1 µM
CC1=C(C(=O)Nc2ccc3[nH]nc(-c4ccnc(N5CCN(CCN6CCN(CC7CCN(c8ccc9c(c8)C(=O)N(C8CCC(=O)NC8=O)C9=O)CC7)CC6)[C@@H](C)C5)c4)c3c2)C(C)(C)n2nnnc2N1C (some centres unmarked) [compound 30]	0.01 to 0.05 µM
CC1=C(C(=O)Nc2ccc3[nH]nc(-c4ccnc(N5CCN(CCN6CCN(CC7CCN(c8ccc9c(c8)C(=O)N(C8CCC(=O)NC8=O)C9=O)CC7)CC6)CC5)c4)c3c2)[C@@H](C)n2nnnc2N1C (some centres unmarked) [compound 25]	0.01 to 0.05 µM

Noted for CC1=C(C(=O)Nc2ccc3[nH]nc(-c4ccnc(N5CCN(CCN6CCN(CC7CCN(c8ccc9c(c8)C(=O)N(C8CCC(=O)NC8=O)C9=O)CC7)CC6)CC5)c4)c3c2)[C@@H](C)n2nnnc2N1C (some centres unmarked) [compound 21] : its DC50 reads ≥ 0.1 µM
